Origin of values: patent US8637501B2

Target: human MCH-1 receptor (Homo sapiens (Human), UniProt Q99705)
Sequence (Q99705 whole entry): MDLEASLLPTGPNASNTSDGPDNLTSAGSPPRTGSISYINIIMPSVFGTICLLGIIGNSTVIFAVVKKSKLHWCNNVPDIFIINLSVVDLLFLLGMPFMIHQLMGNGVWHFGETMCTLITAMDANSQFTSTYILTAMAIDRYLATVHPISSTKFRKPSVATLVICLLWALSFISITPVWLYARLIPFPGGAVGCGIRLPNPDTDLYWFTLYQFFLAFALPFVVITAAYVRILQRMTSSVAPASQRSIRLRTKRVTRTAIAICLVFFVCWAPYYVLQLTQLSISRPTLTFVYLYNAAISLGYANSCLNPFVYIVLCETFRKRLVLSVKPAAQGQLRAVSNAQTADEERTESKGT
pKi: −log10 of the molar value. Structures can show the parent of a compound that is named as a salt.
assay_endpoint: pKi

In [3]: df
Out[3]:
                                   molecule  recorded_measurement
0  Cc1ccc(-c2ccn(-c3ccc4c5c(n(C)c4c3)CCNCC5)c(=O)c2)cn1 [Example 11, dihydrochloride]                  7.31
1  Cl.Cn1c2c(c3ccc(-n4ccc(OCc5ncc(Cl)cc5Cl)cc4=O)cc31)CCNCC2 [Example 56, hydrochloride]                  7.57
2  Cl.Cn1c2c(c3ccc(N4CCN(CCc5ccc(F)cc5)CC4=O)cc31)CN(C1CCC1)CCC2 [Example 75, hydrochloride]                  7.85
3  Cn1c2c(c3ccc(-n4ccc(-c5ccc(C(F)(F)F)nn5)cc4=O)cc31)CCNCC2 [Example 2, dihydrochloride]                  7.84

---

Counter-ions that a name gives are not always drawn.
assay_endpoint: melting point

                                    molecule  assay_endpoint  recorded_measurement
 0  Cn1c2c(c3ccc(-n4ccc(-c5ccc(C(F)(F)F)cn5)cc4=O)cc31)CCNCC2 (as salt: hydrochloride) [Example 3, dihydrochloride]   melting point         310 to 312 °C
 1  Cl.Cn1c2c(c3ccc(N4CCN(CCc5ccc(F)cc5)CC4=O)cc31)CN(C1CCC1)CCC2 [Example 75]   melting point         194 to 205 °C
 2  Cl.Cn1c2c(c3ccc(-n4ccc(-c5ccc(C(F)(F)F)nc5)cc4=O)cc31)CNCCC2 [Example 27]   melting point  274 to 280 °C (dec.)
 3  Cl.Cn1c2c(c3ccc(-n4ccc(OCc5ccc(Cl)cn5)cc4=O)cc31)CNCCC2 [Example 63]   melting point         260 to 266 °C
 4  CC(C)N1CCc2[nH]c3cc(-n4ccc(OCc5ccccc5)cc4=O)ccc3c2CC1.Cl [Example 17]   melting point         152 to 155 °C
 5  Cn1c2c(c3ccc(-n4ccc(OCc5ccccc5)cc4=O)cc31)C(=O)NCCC2 [Example 38]   melting point         178 to 181 °C
 6  CN1CCCc2c(c3ccc(N4CCN(CCc5ccc(F)cc5)CC4=O)cc3n2C)C1.Cl [Example 74]   melting point         211 to 220 °C
 7  Cl.Cn1c2c(c3ccc(-n4ncc(OCc5ccc(C(F)(F)F)nc5)cc4=O)cc31)CCNCC2 [Example 47]   melting point         270 to 274 °C
 8  Cl.O=c1cc(-c2ccc(C(F)(F)F)nn2)ccn1-c1ccc2c3c([nH]c2c1)CCCNC3 [Example 37]   melting point  310 to 315 °C (dec.)
 9  Cl.Cn1c2c(c3ccc(-n4ccc(OCc5ccccc5)cc4=O)cc31)CCCNC2 [Example 18]   melting point  210 to 218 °C (dec.)
10  Cn1c2c(c3ccc(-n4ccc(OCc5ccc(C(F)(F)F)nc5)cc4=O)cc31)CCNCC2 (as salt: hydrochloride) [Example 5, dihydrochloride]   melting point         296 to 300 °C
11  CCN1CCc2c(n(C)c3cc(-n4ccc(OCc5ccccc5)cc4=O)ccc23)CC1.Cl [Example 14]   melting point         246 to 248 °C
12  CC(=O)N1CCCc2c(c3ccc(-n4ccc(OCc5ccc(F)cn5)cc4=O)cc3n2C)C1 [Example 61]   melting point           78 to 83 °C
13  Cl.Cn1c2c(c3ccc(-n4ccc(OCc5ncc(F)cc5F)cc4=O)cc31)CNCCC2 [Example 106]   melting point         180 to 190 °C
14  Cl.Cn1c2c(c3ccc(-n4ccc(OCc5ccc(F)cn5)cc4=O)nc31)CCNCC2 [Example 81]   melting point         238 to 240 °C
15  Cl.Cn1c2c(c3ccc(-n4ccc(-c5ccc(C(F)(F)F)nc5)cc4=O)nc31)CNCCC2 [Example 89]   melting point         308 to 312 °C
16  Cl.Cn1c2c(c3ccc(-n4ccc(OCc5ncc(Cl)cc5Cl)cc4=O)cc31)CNCCC2 [Example 67]   melting point         251 to 256 °C
17  Cl.Cn1c2c(c3ccc(-n4ccc(-c5ccc(C(F)(F)F)nn5)cc4=O)nc31)CCNCC2 [Example 79]   melting point  300 to 305 °C (dec.)
18  Cl.Cn1c2c(c3ccc(-n4ccc(OCc5ncc(Cl)cc5Cl)cc4=O)cc31)CCNCC2 [Example 56]   melting point         178 to 180 °C
19  Cl.Cn1c2c(c3ccc(-n4ccc(-c5ccc(C(F)(F)F)cn5)cc4=O)cc31)CNCCC2 [Example 23]   melting point  264 to 270 °C (dec.)
20  CC(C)N1CCc2c(n(C)c3cc(-n4ccc(OCc5ccccc5)cc4=O)ccc23)CC1.Cl [Example 15]   melting point         256 to 258 °C
21  CC(=O)N1CCc2c(n(C)c3cc(-n4ccc(OCc5ccc(F)cn5)cc4=O)ccc23)CC1.Cl [Example 48]   melting point           88 to 94 °C
22  Cl.Cn1c2c(c3ccc(-n4ccc(OCc5ncc(F)cc5F)cc4=O)cc31)CCNCC2 [Example 102]   melting point         215 to 225 °C
23  CCN1CCCc2c(c3ccc(N4CCN(CCc5ccc(F)cc5)CC4=O)cc3n2C)C1.Cl [Example 76]   melting point         190 to 205 °C
